Molecular target: T1, Cdc13-F539A (Saccharomyces cerevisiae, UniProt P32797 1-924, F539A)
T1 sequence: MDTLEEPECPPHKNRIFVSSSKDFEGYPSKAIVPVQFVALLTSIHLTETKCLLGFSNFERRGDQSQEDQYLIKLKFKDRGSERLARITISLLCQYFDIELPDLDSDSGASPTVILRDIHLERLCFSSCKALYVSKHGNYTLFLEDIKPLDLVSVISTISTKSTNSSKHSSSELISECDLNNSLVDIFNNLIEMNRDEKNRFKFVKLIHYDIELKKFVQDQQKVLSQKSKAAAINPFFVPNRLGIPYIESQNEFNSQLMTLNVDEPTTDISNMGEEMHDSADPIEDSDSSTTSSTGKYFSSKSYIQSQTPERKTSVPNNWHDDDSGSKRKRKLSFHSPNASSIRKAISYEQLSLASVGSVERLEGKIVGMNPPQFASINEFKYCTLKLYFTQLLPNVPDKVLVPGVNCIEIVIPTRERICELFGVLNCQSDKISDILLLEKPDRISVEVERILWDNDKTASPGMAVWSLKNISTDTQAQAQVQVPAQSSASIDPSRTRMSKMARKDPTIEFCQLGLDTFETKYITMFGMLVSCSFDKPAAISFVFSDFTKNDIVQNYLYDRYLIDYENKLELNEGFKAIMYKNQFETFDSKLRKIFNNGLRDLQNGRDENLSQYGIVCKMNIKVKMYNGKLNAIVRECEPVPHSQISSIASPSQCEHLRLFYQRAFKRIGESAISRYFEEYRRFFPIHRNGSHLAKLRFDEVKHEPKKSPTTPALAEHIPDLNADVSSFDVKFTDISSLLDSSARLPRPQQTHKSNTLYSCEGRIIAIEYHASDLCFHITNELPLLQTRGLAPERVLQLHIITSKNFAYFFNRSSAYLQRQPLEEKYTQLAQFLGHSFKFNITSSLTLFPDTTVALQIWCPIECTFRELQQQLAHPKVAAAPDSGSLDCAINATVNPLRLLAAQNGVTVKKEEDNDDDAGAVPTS
Assay: EMSA
REPORTED_PROPERTY: Kd (nM)
Reply with just the number (in nM).

Input line: Kd for GTGTGGGTGTG (ssDNA) [Tel11] ?
Output line: 0.14

Origin of the recorded values: paper PMC3874162
